# TEST SYSTEM: T1, human corticotropin-releasing hormone receptor 1 (CRHR1) (human, UniProt P34998 24-415)
# T1 sequence (looked up): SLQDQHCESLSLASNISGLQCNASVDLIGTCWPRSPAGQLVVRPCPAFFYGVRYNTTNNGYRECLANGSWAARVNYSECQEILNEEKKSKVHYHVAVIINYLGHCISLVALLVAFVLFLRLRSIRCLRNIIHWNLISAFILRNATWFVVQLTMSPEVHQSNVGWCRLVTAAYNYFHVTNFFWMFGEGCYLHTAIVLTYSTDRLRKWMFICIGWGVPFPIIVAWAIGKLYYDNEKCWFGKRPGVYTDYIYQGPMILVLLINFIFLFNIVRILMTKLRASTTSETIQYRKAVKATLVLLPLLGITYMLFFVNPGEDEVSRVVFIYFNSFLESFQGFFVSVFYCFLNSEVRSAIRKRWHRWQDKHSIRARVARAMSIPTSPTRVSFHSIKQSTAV
# METHOD SUMMARY: cell-based or functional assay
*1 amine or outer side, *2 acyl side, *3 side chain or, on linkers, in order; H or OH if unused. Side-chain parts run from the residue outwards. [ ]: non-standard residue; d: D form. The star is where a group is joined. C20 diacid = O=C(O)CCCCCCCCCCCCCCCCCCC(=O)*; γGlu = O=C(O)[C@H](CCC(=O)[*:2])N[*:1]; εLys = N[C@@H](CCCCN[*:1])C(=O)[*:2]; αMeL = CC(C)C[C@](C)(N)C(=O)O; AEEA = NCCOCCOCC(=O)O; Aib = CC(C)(N)C(=O)O
In this section we review reported hCRHR1 cAMP EC50 values for a set of binders.

BINDER | hCRHR1 cAMP EC50
Ac-GSPSIVTS[αMeL]DVPT[Aib][αMeL]LQKLLEQERAEKARQQAK([γGlu-AEEA-εLys-C20 diacid])EAAEILAQV-NH2 [polypeptide comprising SEQ ID NO:2] | > 10 µM
Ac-IVTS[αMeL]D[dV]PTG[αMeL]LQIKLEQERAEKARQQAKENTEILAQV-NH2 (not fully specified (residue 29)) [polypeptide comprising SEQ ID NO:35] | 3 µM
Ac-GSPSIVTS[αMeL]DVPT[Aib][αMeL]LQKILEQERAEKARQQAK([γGlu-Pro-Glu-Pro-Glu-Pro-Glu-C20 diacid])EAAEILAQV-NH2 [polypeptide comprising SEQ ID NO:16] | > 10 µM
Ac-IVTS[αMeL]D[dV]PTG[αMeL]LQIKLEQERAEKARQQAKENTEILAQV-NH2 (not fully specified (residue 29)) [polypeptide comprising SEQ ID NO:29] | > 10 µM
